Reference for the values: BigSolDB 2.1

Conditions: in n-butyl acetate, 308.15 K
QUANTITY KIND: solubility (mole fraction)

// `COc1cccc(C(=O)O)c1OC` : solubility (mole fraction) value = 0.0286

====

Conditions: in ethanol, 313.15 K
QUANTITY KIND: solubility (mole fraction)
Give bare numbers.

Data point: `COc1cccc(C(=O)O)c1OC` ; solubility (mole fraction) = 0.0592

====

Conditions: in methanol, 298.15 K
QUANTITY KIND: solubility (mole fraction)
Give bare numbers.

Briefly, solubility (mole fraction) measured for `COc1cccc(C(=O)O)c1OC` : 0.0348

====

Details: in ethylene glycol, 303.15 K
QUANTITY KIND: solubility (mole fraction)
Numbers only.

Lab note: measured solubility (mole fraction) of `COc1cccc(C(=O)O)c1OC` was 0.092

====

Settings: in isopropyl acetate, 303.15 K
QUANTITY KIND: solubility (mole fraction)
Numbers only.

// solubility (mole fraction) value for `COc1cccc(C(=O)O)c1OC` : 0.0237

====

Conditions: in 2-ethoxyethanol, 323.15 K
QUANTITY KIND: solubility (mole fraction)
One number for each entry.

solubility (mole fraction) in this record for `COc1cccc(C(=O)O)c1OC` : 0.146

====

Conditions: in methyl acetate, 318.15 K
QUANTITY KIND: solubility (mole fraction)
Answers are plain numbers.

Entry `COc1cccc(C(=O)O)c1OC` ; solubility (mole fraction) = 0.0719

====

Conditions: in 2-ethoxyethanol, 293.15 K
QUANTITY KIND: solubility (mole fraction)
Answers are plain numbers.

`COc1cccc(C(=O)O)c1OC` yielded solubility (mole fraction) of 0.0644

====

Details: in ethylene glycol, 318.15 K
QUANTITY KIND: solubility (mole fraction)
Give bare numbers.

The compound listed as `COc1cccc(C(=O)O)c1OC` has a reported solubility (mole fraction) of 0.137

====

Details: in n-butyl acetate, 298.15 K
QUANTITY KIND: solubility (mole fraction)
Answers are plain numbers.

solubility (mole fraction) in this record for `COc1cccc(C(=O)O)c1OC` : 0.0195

====

Settings: in ethylene glycol, 288.15 K
QUANTITY KIND: solubility (mole fraction)

solubility (mole fraction) in this record for `COc1cccc(C(=O)O)c1OC` : 0.0616

====

Conditions: in ethanol, 303.15 K
QUANTITY KIND: solubility (mole fraction)
One number for each entry.

Form: molecule = `COc1cccc(C(=O)O)c1OC` ; solubility (mole fraction) = 0.0384

====

Details: in n-propyl acetate, 283.15 K
QUANTITY KIND: solubility (mole fraction)
Answers are plain numbers.

What the record says about `COc1cccc(C(=O)O)c1OC` : solubility (mole fraction) is 0.0133

====

Settings: in methyl acetate, 288.15 K
QUANTITY KIND: solubility (mole fraction)
Give bare numbers.

Given item `COc1cccc(C(=O)O)c1OC` , the value recorded as its solubility (mole fraction) is 0.0236

====

Details: in n-butanol, 283.15 K
QUANTITY KIND: solubility (mole fraction)
Answers are plain numbers.

The recorded solubility (mole fraction) for `COc1cccc(C(=O)O)c1OC` is 0.0116

====

Conditions: in 1,4-dioxane, 313.15 K
QUANTITY KIND: solubility (mole fraction)
One number for each entry.

compound `COc1cccc(C(=O)O)c1OC` , solubility (mole fraction) observed: 0.127

====

Conditions: in n-propanol, 308.15 K
QUANTITY KIND: solubility (mole fraction)
One number for each entry.

Notebook: `COc1cccc(C(=O)O)c1OC` , solubility (mole fraction) read as 0.0386
